- test-system: human Edg-1(S1P1) (Homo sapiens, UniProt P21453)
- Construct: expressed in transfected cells; host or cells: HEK-293
- Sequence (P21453 whole entry): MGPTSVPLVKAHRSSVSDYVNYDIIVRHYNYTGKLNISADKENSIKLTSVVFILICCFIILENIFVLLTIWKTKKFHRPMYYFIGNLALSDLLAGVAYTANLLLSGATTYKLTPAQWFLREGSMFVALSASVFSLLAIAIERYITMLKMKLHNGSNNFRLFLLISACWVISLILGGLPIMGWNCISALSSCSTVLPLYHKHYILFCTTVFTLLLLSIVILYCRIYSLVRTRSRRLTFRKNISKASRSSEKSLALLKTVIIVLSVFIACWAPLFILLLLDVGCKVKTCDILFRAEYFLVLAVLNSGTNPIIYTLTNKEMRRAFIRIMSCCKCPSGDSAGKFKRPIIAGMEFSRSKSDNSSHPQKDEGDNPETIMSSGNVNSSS
- method-description: Membrane system binding test: inhibition of [33P]-S1P binding to the membrane fraction of Edg-1(S1P1) gene transferred HEK-293 cells
- recorded-conditions: 10 μM compound; [33P]-S1P 0.1 nM; membrane fraction of Edg-1(S1P1) gene transferred HEK-293 cells; read-out: Membrane system binding test % inhibition (10 μM)
attribute-measured: inhibition at 10 µM (%)

Examples with answers:
compound	recorded-number
CCn1c(OC)nnc1[C@@H](C)NS(=O)(=O)c1ccsc1C(=O)OC	48.3
CCn1c(OC)nnc1[C@@H](Cc1cccc(Cl)c1)NS(=O)(=O)c1ccc(Cl)cc1	102
CCOc1nnc([C@@H](C)NS(=O)(=O)c2cccc(OC(F)F)c2)n1CC	77.7
CCn1c(SCC2CCO2)nnc1[C@@H](C)NS(=O)(=O)c1ccc(Cl)cc1 (some centres unmarked)	90
CCn1c(SCCC2CCN(C)CC2)nnc1[C@@H](C)NS(=O)(=O)c1ccc(Cl)cc1	101
CCOc1nnc([C@@H](C)NS(=O)(=O)c2ccc(Br)cc2)n1CC	92.2

P. CCn1c(OCC2CCC2)nnc1[C@@H](C)NS(=O)(=O)c1ccc(Cl)cc1
Q. CCn1c(OC)nnc1[C@@H](C)NS(=O)(=O)c1ccc(NC(C)=O)c(Cl)c1
Returns the identifier with the smallest measured inhibition at 10 µM among P and Q . Selection: enter the item's label.
Q
(Q: 46.9%, P: 90.1%)

====

- test-system: human Edg-1(S1P1) (Homo sapiens)
- Construct: expressed in transfected cells; host or cells: HEK-293
- method-description: Membrane system binding test: inhibition of [33P]-S1P binding to the membrane fraction of Edg-1(S1P1) gene transferred HEK-293 cells
- recorded-conditions: 10 μM compound; [33P]-S1P 0.1 nM; membrane fraction of Edg-1(S1P1) gene transferred HEK-293 cells; read-out: Membrane system binding test % inhibition (10 μM)
attribute-measured: inhibition at 10 µM (%)

Examples with answers:
chem-smiles	attribute-measured	recorded-number
CCn1c(OC)nnc1[C@@H](C)NS(=O)(=O)c1cccc2ccccc12	inhibition at 10 µM	61.1
CCn1c(OC)nnc1[C@@H](C)NS(=O)(=O)c1ccc(I)cc1	inhibition at 10 µM	79.1
CC#CCSc1nnc([C@@H](C)NS(=O)(=O)c2ccc(Cl)cc2)n1CC	inhibition at 10 µM	76
CCn1c(SCCNC(=O)c2ccncc2)nnc1[C@@H](C)NS(=O)(=O)c1ccc(Cl)cc1	inhibition at 10 µM	109
CCn1c(SC(C)C)nnc1[C@@H](C)NS(=O)(=O)c1ccc(Cl)cc1	inhibition at 10 µM	105
CCOc1nnc([C@@H](C)NS(=O)(=O)c2ccc(Br)c(C(F)(F)F)c2)n1CC	inhibition at 10 µM	93.9

1. CCOc1nnc([C@@H](C)NS(=O)(=O)c2ccc(CC)cc2)n1CC
2. CCn1c(OC)nnc1[C@H](C)NS(=O)(=O)c1ccc(Cl)c([N+](=O)[O-])c1
Higher inhibition at 10 µM between 1 and 2 ? Selection: enter the item's label.
2
(2: 104%, 1: 72.5%)

====

- test-system: human Edg-1(S1P1) (Homo sapiens, UniProt P21453)
- Construct: expressed in transfected cells; host or cells: HEK-293
- method-description: Cell system binding test: inhibition of [3H]-S1P binding to Edg-1(S1P1) gene transferred HEK-293 cells
- recorded-conditions: 10 μM compound, [3H]-S1P 10 nM, read-out: Cell system binding test % inhibition (10 μM)
attribute-measured: inhibition at 10 µM (%)

molecule	test-system	inhibition at 10 µM, %
CCOc1nnc([C@@H](C)NS(=O)(=O)c2ccc(C)c(Cl)c2)n1CC	human Edg-1(S1P1) (Homo sapiens, UniProt P21453)	91.2
CCn1c(OC)nnc1[C@@H](C)NS(=O)(=O)c1cc(C)cc(C)c1	human Edg-1(S1P1) (Homo sapiens, UniProt P21453)	95.5
CCCCCCCCCCCCCCCCOc1nnc([C@@H](C)NS(=O)(=O)c2ccc(Cl)cc2)n1CC	human Edg-1(S1P1) (Homo sapiens, UniProt P21453)	75.5
CCn1c(OC)nnc1[C@@H](C)NS(=O)(=O)c1ncc(C)s1	human Edg-1(S1P1) (Homo sapiens, UniProt P21453)	71.3
CCCCOc1ccc(S(=O)(=O)N[C@@H](C)c2nnc(OC)n2CC)cc1	human Edg-1(S1P1) (Homo sapiens, UniProt P21453)	99.6

A. CCOc1nnc([C@@H](C)NS(=O)(=O)c2ccc(F)cc2)n1CC
B. CCCC(NS(=O)(=O)c1ccc(Cl)cc1)c1nnc(SCc2ccc(C)cc2)n1C (centres unmarked)
Higher inhibition at 10 µM between A and B ? Selection: enter the item's label.
A
(A: 94.5%, B: 63.6%)

====

attribute-measured: melting point

# input molecule: CCn1c(SC)nnc1[C@@H](C)NS(=O)(=O)c1ccc(Cl)cc1 [Compound 1] ; wanted: its melting point
176 to 177 °C

And CCCOc1nnc([C@@H](C)NS(=O)(=O)c2ccc(Cl)cc2)n1CC [Compound 183] ?
150.5 to 151.5 °C

And C=CCSc1nnc(C(CCC)NS(=O)(=O)c2ccc(Cl)cc2)n1C (stereo not shown) [Compound 125] ?
161.5 to 162 °C

And C=CCSc1nnc([C@@H](C)N(C)S(=O)(=O)c2ccc(Cl)cc2)n1CC [Compound 99] ?
142 to 143 °C

And CCn1c([C@@H](C)NS(=O)(=O)c2ccc(Cl)cc2)nnc1S(C)(=O)=O [Compound 182] ?
129 to 130 °C

And CCn1c(S)nnc1[C@@H](C)NS(=O)(=O)c1ccc(Cl)cc1 [Compound 90] ?
169.5 to 172.5 °C

And CCn1c(OC)nnc1[C@@H](C)NS(=O)(=O)c1ccccc1 [Compound 376] ?
161 to 162 °C

====

- test-system: human Edg-1(S1P1) (Homo sapiens, UniProt P21453)
- Construct: expressed in transfected cells; host or cells: HEK-293
- method-description: Membrane system binding test: inhibition of [33P]-S1P binding to the membrane fraction of Edg-1(S1P1) gene transferred HEK-293 cells
- recorded-conditions: test compound 10^-5 M; [33P]-S1P 0.1 nM; 1 hour at 30° C.; HEK-293 membrane fraction; read-out: Edg-1(S1P1) binding inhibition rate (membrane system binding test)
attribute-measured: inhibition at 10 µM (%)

compound	recorded-number
CCCOc1nnc([C@@H](Cc2ccc(Cl)c(Cl)c2)NS(=O)(=O)c2ccc(Cl)c(Cl)c2)n1CC [Compound 526]	88.9
CCn1c(OCC(F)(F)F)nnc1[C@@H](C)NS(=O)(=O)c1cccc(OC)c1 [Compound 516]	61.9
CCn1c(OCC(F)(F)F)nnc1[C@@H](C)NS(=O)(=O)c1ccc(Cl)c(Cl)c1 [Compound 485]	95.5
CCn1c(OCC(F)(F)F)nnc1C(Cc1ccccc1)NS(=O)(=O)c1ccc(Cl)c(Cl)c1 (stereo not shown) [Compound 530]	97.2
CCn1c(OCCCN2CCOCC2)nnc1[C@@H](Cc1ccccc1)NS(=O)(=O)c1ccc(Cl)c(Cl)c1 [Compound 538]	103
CCn1c(OC(C)C)nnc1[C@@H](C)NS(=O)(=O)c1cccc(OC)c1 [Compound 481]	64.9
CCn1c(OCCCOC)nnc1[C@@H](Cc1ccccc1)NS(=O)(=O)c1ccc(Cl)c(Cl)c1 [Compound 535]	102
CCn1c(OC(C)C)nnc1[C@@H](C)NS(=O)(=O)c1ccc(C)c(F)c1 [Compound 463]	97.2
CCn1c(OC(C)C)nnc1[C@@H](C)NS(=O)(=O)c1ccc(Br)c(Br)c1 [Compound 467]	98.6
CCn1c(OC)nnc1[C@@H](Cc1cc(F)cc(F)c1)NS(=O)(=O)c1ccc(Cl)c(Cl)c1 [Compound 552]	97.3
CCn1c(OC(C)C)nnc1[C@@H](C)NS(=O)(=O)c1cc(F)c(Br)cc1F [Compound 482]	72.3
CCn1c(OC(C)C)nnc1[C@@H](C)NS(=O)(=O)c1ccc(Br)s1 [Compound 452]	89.7
CCn1c(OC(C)C)nnc1[C@@H](C)NS(=O)(=O)c1ccc(F)cc1 [Compound 477]	77.1
CCn1c(OC(C)C)nnc1[C@@H](C)NS(=O)(=O)c1ccc(C(F)(F)F)cc1 [Compound 473]	91.7
CCn1c(OC(C)C)nnc1[C@@H](C)NS(=O)(=O)c1ccc(C)c(Cl)c1 [Compound 454]	92.6
CCCn1c(OC)nnc1[C@@H](Cc1ccccc1)NS(=O)(=O)c1ccc(Cl)c(Cl)c1 [Compound 554]	88

====

- test-system: human Edg-1(S1P1) (Homo sapiens, UniProt P21453)
- Construct: expressed in transfected cells; host or cells: HEK-293
- method-description: Membrane system binding test: inhibition of [33P]-S1P binding to the membrane fraction of Edg-1(S1P1) gene transferred HEK-293 cells
- recorded-conditions: 10 μM compound; [33P]-S1P 0.1 nM; membrane fraction of Edg-1(S1P1) gene transferred HEK-293 cells; read-out: Membrane system binding test % inhibition (10 μM)
- Procedure: The membrane fraction was obtained by treating the cells with a solubilizing buffer (1 mM Tris/HCl, pH 7.2) for 10 minutes on ice, centrifuging the system (1000×g, 5 min) to remove insoluble fractions, and then centrifuging the system (40000×g, 30 min, 4° C.). […] To the filter, 25 μL Microscint 0 (produced by Perkin-Elmer) was added, and the assay system was measured for radioactivity by means of Top Count NXT (Packard). […]
attribute-measured: inhibition at 10 µM (%)

Examples with answers:
chem-smiles	unit-of-measurement	recorded-number
CCn1c(SCCc2c[nH]c3ccccc23)nnc1[C@@H](C)NS(=O)(=O)c1ccc(Cl)cc1	%	106
CCn1c(OC)nnc1[C@@H](Cc1ccccc1Cl)NS(=O)(=O)c1ccc(Cl)cc1	%	100
C=CCSc1nnc([C@@H](Cc2ccccc2)NS(=O)(=O)c2ccc(Cl)cc2)n1CC	%	102
CCn1c(OC)nnc1[C@H](C)NS(=O)(=O)c1ccc(NC(C)=O)cc1	%	46.7
CCn1c(OC)nnc1[C@@H](C)NS(=O)(=O)c1ccc(-c2ccccc2)cc1	%	56.7

P. CCn1c(SCCc2ccc(Cl)cc2)nnc1[C@@H](C)NS(=O)(=O)c1ccc(Cl)cc1
Q. CCn1c(OCCN(C)C)nnc1[C@@H](C)NS(=O)(=O)c1ccc(Cl)cc1
Higher inhibition at 10 µM between P and Q ? Selection: enter the item's label.
P
(P: 100%, Q: 46.4%)
